Test system: T-47D breast
Test: NCI-60 one-dose screen, 48 h
Settings: 10 µM
About 83,000 compounds went through this panel and 20% of them were active in at least one assay; those are over-represented in the sample as a whole. Activity calls are given as the source filed them. Rule for the calls: active = growth percent below 10; inactive = the rest.
Allowed answers: active, inactive

Which result was noted for this molecule in the test: Cc1c(C(N)=O)sc2c1c(=O)n(Cc1ccccc1)c1nnc(-c3ccc(Br)cc3)n21
inactive

# outcome recorded in this test, key = CC(C)(C)c1ccc(S(=O)(=O)N[C@H]2CC[C@H]3[C@@H]4CCc5cc(O)ccc5[C@H]4CC[C@]23C)cc1
inactive

Dear colleague, could you share the recorded outcome for COc1ccccc1-n1c(-c2csc(NC(C)=O)n2)n[nH]c1=S when you have a moment?
inactive

Returns: the outcome recorded for COc1ccc(-c2nn(-c3cccc(Cl)c3)cc2-c2c(C#N)c(=O)n3[nH]c(-c4ccccc4)nc3c2C#N)cc1 in this assay.
inactive

Tell me the assay call for COc1ccc(/C(C#N)=C/c2ccccc2OC)cc1 please.
inactive

What is the recorded call for this molecule in the test? O=C1c2ccccc2C(=O)c2c1ccc(C(Br)Br)c2Cl
inactive

Lab log entry: COc1cc(C(=O)/C(C)=C/c2c[nH]c3ccccc23)cc(OC)c1OC — outcome as called in the assay?
inactive

So what was the verdict on CC(C)C1=C(O)C2=C(C(=O)C1=O)[C@@]1(C)CCCC(C)(C)[C@@H]1CC2 in this test?
inactive

Dear all, I need the recorded test outcome for c1ccc2c(c1)Cc1ccccc1N2CCN1CCCCC1 , thank you.
inactive

Outcome? CS(=O)(=O)c1nccc(-c2c(-c3cccc(OCCN4CCOCC4)c3)nc3sccn23)n1
inactive

# lookup: test call for CC1=NN(C(=O)c2nn(-c3ccc(Cl)cc3)cc2O)C(=O)C1
inactive

Called result for COc1ccc2c(c1)C(CC(=O)NN)CCC2 (stereo unspecified)
inactive

Dear all, I need the recorded test outcome for NS(=O)(=O)c1ccc(N2N=C(c3ccccc3)CCC2=O)cc1 , thank you.
inactive

Short answer needed: outcome of this test for Cc1[nH]c2ccccc2c1/C=N/Nc1ncnc2sc3c(c12)CCN(CC(=O)OC(C)(C)C)C3 ?
inactive

Please share the test call associated with CC(CN(C)C)Oc1ccccc1NC1=C(Cl)C(=O)C(Nc2ccccc2OC(C)CN(C)C)=C(Cl)C1=O (stereo unspecified) .
active

Dear all, I need the recorded test outcome for COc1ccc(-c2nn(-c3cccc(Cl)c3)cc2-c2cc(-c3ccccc3)[nH]c(=O)c2C#N)cc1 , thank you.
inactive
